Test system: CYP1A2, CYP2C9, CYP2C19, CYP2D6 (range over isoforms)
Assay: Cytochrome P450 inhibition assay, summary over isoforms
Type: in vitro ADME
Details: human, human liver microsomes
measured.quantity: IC50 at 10 min

| compound | reported.measurement |
| --- | --- |
| Cc1cc(C#N)cc(C)c1Oc1nc(Nc2ccc(C#N)cc2)nc(N)c1Br [ETR, etravirine, reference compound] | 0.277 to 12 µM |
| Cc1cc(/C=C/C#N)cc(C)c1Nc1ccnc(Nc2ccc(C#N)cc2)n1 [RPV, rilpivirine, reference compound] | 0.335 to 9.11 µM |

---

Test: physchem
Settings: pH 7, aqueous buffer
Parameter: solubility. Scope: all listed entries.

| molecule | measurement.unit | relation.qualifier | solubility |
| --- | --- | --- | --- |
| Cc1cc(C#N)cc(C)c1Oc1nc(Nc2ccc(C#N)cc2)nc(N)c1Br [ETR, etravirine, reference compound] | µg/mL | < | 1 |
| Cc1cc(/C=C/C#N)cc(C)c1Oc1nc(NC2CCN(Cc3ccc(S(N)(=O)=O)cc3)CC2)nc2c1SCCC2 [compound 23h] | µg/mL | = | 11.7 |

---

Assay: Cytotoxicity in mock-infected MT-4 cells, MTT method
Assay type: cell-based
Conditions: human
Threshold 5 µM. CC50 at 5 days below it: TRUE. CC50 at 5 days at it or above: FALSE.

| compound | class |
| --- | --- |
| Cc1cc(C#N)cc(C)c1Oc1nc(Nc2ccc(C#N)cc2)nc2c1S(=O)(=O)CCC2 [compound 16b] | FALSE |
| Cc1cc(C#N)cc(C)c1Oc1nc(Nc2ccc(C#N)cc2)nc(N)c1Br [ETR, etravirine, reference compound] | TRUE |
| CCOC(=O)c1ccc(CN2CCC(Nc3nc4c(c(Oc5c(C)cc(C#N)cc5C)n3)SCCC4)CC2)cc1 [23e] | FALSE |
| Cc1cc(/C=C/C#N)cc(C)c1Oc1nc(NC2CCN(Cc3ccc(S(N)(=O)=O)cc3)CC2)nc2c1SCCC2 [compound 23h] | TRUE |
| O=C1Nc2ccc(Cl)cc2[C@@](C#CC2CC2)(C(F)(F)F)O1 [EFV, efavirenz, reference compound] | FALSE |
| Cc1cc(C#N)cc(C)c1Oc1nc(NCCn2ccc(=O)[nH]c2=O)nc2c1SCCC2 [20a] | FALSE |
| Cc1cc(C)c(Oc2nc(NCCn3ccc(=O)[nH]c3=O)nc3c2SCCC3)c(C)c1 [20c] | FALSE |
| Cc1cc(C#N)cc(C)c1Oc1nc(N2CCN(Cc3ccc(S(N)(=O)=O)cc3)CC2)nc2c1SCCC2 [19a] | FALSE |
| Cc1cc(C#N)cc(C)c1Oc1nc(Nc2ccc(C#N)cc2)nc2c1SCCC2 [compound 15a] | TRUE |
| Cc1cc(C#N)cc(C)c1Oc1nc(NC2CCN(c3cccc(C#N)c3)CC2)nc2c1SCCC2 [compound 27a] | FALSE |
| Cc1cc(C#N)cc(C)c1Oc1nc(Nc2ccc(C#N)cc2)nc2c1[S+]([O-])CCC2 (stereo not shown) [16a] | FALSE |
| Cc1cc(C#N)cc(C)c1Oc1nc(NC2CCN(Cc3cccc(C#N)c3)CC2)nc2c1SCCC2 [compound 23b] | TRUE |
| Cc1cc(C#N)cc(C)c1Oc1nc(NCCN2CCOCC2)nc2c1SCCC2 [compound 20d] | FALSE |
| Cc1cc(C#N)cc(C)c1Oc1nc(NC2CCN(c3cccc(C(N)=O)c3)CC2)nc2c1SCCC2 [27b] | FALSE |
| Cc1cc(C)c(Oc2nc(NC3CCN(Cc4ccc(S(N)(=O)=O)cc4)CC3)nc3c2SCCC3)c(C)c1 [23i] | FALSE |
| Cc1cc(/C=C/C#N)cc(C)c1Oc1nc(NCCn2ccc(=O)[nH]c2=O)nc2c1SCCC2 [20b] | FALSE |
| Cc1cc(C#N)cc(C)c1Oc1nc(NC2CCN(Cc3ccccc3C#N)CC2)nc2c1SCCC2 [23c] | TRUE |
| Cc1cc(C#N)cc(C)c1Oc1nc(NC2CCN(Cc3ccc(N)cc3)CC2)nc2c1SCCC2 [23f] | FALSE |
| Cc1cc(C#N)cc(C)c1Oc1nc(NC2CCN(Cc3cccc(S(N)(=O)=O)c3)CC2)nc2c1SCCC2 [23d] | FALSE |
| Cc1cc(C#N)cc(C)c1Oc1nc(NC2CCN(Cc3ccc(C#N)cc3)CC2)nc2c1SCCC2 [23a] | TRUE |

---

Test: In vivo pharmacokinetics in SD rats
Design: species or system Sprague–Dawley (SD) rats
Settings: Sprague-Dawley, rat, plasma, oral, 20 mg/kg
Parameter: bioavailability. Scope: all listed entries.

| compound | measurement.unit | bioavailability |
| --- | --- | --- |
| Cc1cc(/C=C/C#N)cc(C)c1Oc1nc(NC2CCN(Cc3ccc(S(N)(=O)=O)cc3)CC2)nc2c1SCCC2 [compound 23h] | % | 15.3 |
| Cc1cc(C#N)cc(C)c1Oc1nc(Nc2ccc(C#N)cc2)nc(N)c1Br [ETR, etravirine, reference compound] | % | 7.17 |

---

Assay: In vivo pharmacokinetics in SD rats
Design: species or system Sprague–Dawley (SD) rats
Conditions: Sprague-Dawley, rat, plasma, iv, 2 mg/kg
Parameter: AUC(0-inf). Scope: all listed entries.

| compound | AUC(0-inf), ng·h/mL |
| --- | --- |
| Cc1cc(/C=C/C#N)cc(C)c1Oc1nc(NC2CCN(Cc3ccc(S(N)(=O)=O)cc3)CC2)nc2c1SCCC2 [compound 23h] | 1210 |
| Cc1cc(C#N)cc(C)c1Oc1nc(Nc2ccc(C#N)cc2)nc(N)c1Br [ETR, etravirine, reference compound] | 587 |

---

Assay: In vivo pharmacokinetics in SD rats
Set-up: species or system Sprague–Dawley (SD) rats
Conditions: Sprague-Dawley, rat, plasma, po, 20 mg/kg
Parameter: MRT last. Scope: all listed entries.

| compound | MRT last (h) |
| --- | --- |
| Cc1cc(/C=C/C#N)cc(C)c1Oc1nc(NC2CCN(Cc3ccc(S(N)(=O)=O)cc3)CC2)nc2c1SCCC2 [compound 23h] | 4.1 |
| Cc1cc(C#N)cc(C)c1Oc1nc(Nc2ccc(C#N)cc2)nc(N)c1Br [ETR, etravirine, reference compound] | 2.55 |

---

Parameter: half-life. Scope: all listed entries.
Experiment: In vivo pharmacokinetics in SD rats
Parameters: species or system Sprague–Dawley (SD) rats
Conditions: Sprague-Dawley, rat, plasma, iv, 2 mg/kg
measured.quantity: half-life (h)

| molecule | measured.quantity | reported.measurement |
| --- | --- | --- |
| Cc1cc(/C=C/C#N)cc(C)c1Oc1nc(NC2CCN(Cc3ccc(S(N)(=O)=O)cc3)CC2)nc2c1SCCC2 [compound 23h] | half-life | 2.09 |
| Cc1cc(C#N)cc(C)c1Oc1nc(Nc2ccc(C#N)cc2)nc(N)c1Br [ETR, etravirine, reference compound] | half-life | 1.8 |

---

Parameter: EC50. Scope: all listed entries.
System: HIV-1 WT strain (IIIB)
Experiment: Anti-HIV-1 activity in MT-4 cells, MTT method, WT strain IIIB
Assay type: cell-based
Details: Human immunodeficiency virus 1, IIIB, MT4, read-out: EC50 IIIB

| compound | test.system | EC50 |
| --- | --- | --- |
| Cc1cc(C#N)cc(C)c1Oc1nc(Nc2ccc(C#N)cc2)nc(N)c1Br [ETR, etravirine, reference compound] | HIV-1 WT strain (IIIB) | 2.81 nM |
| Cc1cc(C#N)cc(C)c1Oc1nc(Nc2ccc(C#N)cc2)nc2c1SCCC2 [compound 15a] | HIV-1 WT strain (IIIB) | 3.38 nM |
| Cc1cc(C#N)cc(C)c1Oc1nc(NC2CCN(Cc3ccc(C#N)cc3)CC2)nc2c1SCCC2 [23a] | HIV-1 WT strain (IIIB) | 4.44 nM |
| Cc1cc(/C=C/C#N)cc(C)c1Oc1nc(Nc2ccc(C#N)cc2)nc2c1SCCC2 [15b] | HIV-1 WT strain (IIIB) | 3.18 nM |

---

Test system: HIV-1 F227L + V106A
Assay: microbe, parasite or virus in culture
Format: cell-based
Settings: resistance fold, EC50 (mutant strain)/EC50 (WT strain)
Threshold 30. RF F227L + V106A below it: criterion met. RF F227L + V106A at it or above: criterion not met.

| compound | class |
| --- | --- |
| Cc1cc(/C=C/C#N)cc(C)c1Nc1ccnc(Nc2ccc(C#N)cc2)n1 [RPV, rilpivirine, reference compound] | criterion not met |
| Cc1cc(C#N)cc(C)c1Oc1nc(Nc2ccc(C#N)cc2)nc(N)c1Br [ETR, etravirine, reference compound] | criterion met |
| Cc1cc(/C=C/C#N)cc(C)c1Oc1nc(Nc2ccc(C#N)cc2)nc2c1SCCC2 [15b] | criterion met |
| Cc1cc(C#N)cc(C)c1Oc1nc(NC2CCN(Cc3ccc(N)cc3)CC2)nc2c1SCCC2 [23f] | criterion met |
| Cc1cc(C#N)cc(C)c1Oc1nc(Nc2ccc(C#N)cc2)nc2c1S(=O)(=O)CCC2 [compound 16b] | criterion met |
| Cc1cc(C)c(Oc2nc(NC3CCN(Cc4ccc(S(N)(=O)=O)cc4)CC3)nc3c2SCCC3)c(C)c1 [23i] | criterion met |
| Cc1cc(C#N)cc(C)c1Oc1nc(NC2CCN(Cc3ccc(NS(C)(=O)=O)cc3)CC2)nc2c1SCCC2 [23g] | criterion not met |
| Cc1cc(C#N)cc(C)c1Oc1nc(Nc2ccc(C#N)cc2)nc2c1SCCC2 [compound 15a] | criterion met |
| Cc1cc(/C=C/C#N)cc(C)c1Oc1nc(NC2CCN(Cc3ccc(S(N)(=O)=O)cc3)CC2)nc2c1SCCC2 [compound 23h] | criterion met |
